Data origin: ChEMBL document CHEMBL1201862

Give GI50 for every item shown.
Test system: OVCAR-3
assay method text: NCI tumour cell line growth inhibition, 48 h
Active and inactive are the calls of the source. Rule as the data show it: active = GI50 up to about 1.1 µM and inactive = higher.

[
  {
    "molecule": "N#Cc1ccccc1NC(=O)C(=O)C(C(=O)c1ccccc1-c1ccccc1)C1OC(=O)c2ccccc21 (centres undefined)",
    "GI50": "15.8 µM (inactive)"
  },
  {
    "molecule": "O=C(CC(=O)Nc1ccc(C(=O)O)cc1)Nc1ccc(C(=O)O)cc1",
    "GI50": "> 100 µM (inactive)"
  },
  {
    "molecule": "COc1cc([C@@H]2c3cc4c(cc3[C@@H](NCc3ccccc3)C3COC(=O)[C@@H]32)OCO4)cc(OC)c1O (some centres undefined)",
    "GI50": "17.8 µM (inactive)"
  },
  {
    "molecule": "O=C(O)c1cccc(CN2CCCCC2)c1",
    "GI50": "> 100 µM (inactive)"
  },
  {
    "molecule": "O=C1C=C(Br)c2c(-c3ccccc3)oc3cccc1c23",
    "GI50": "> 57.1 µM (inactive)"
  },
  {
    "molecule": "COc1ccc2nc3cccc(C(=O)NCCN(C)C)c3nc2c1",
    "GI50": "2.08 µM (inactive)"
  }
]

Go through the list and state GI50 for each entry.
1. CC1(C)Oc2ccccc2OC1O (centres undefined)
2. Cc1ccc([N+](=O)[O-])cc1S(=O)(=O)Nc1ccc(C(=O)/C=C/c2ccccc2)cc1
3. C#CCN(Cc1ccc2nc(-c3ccccc3)c(Cl)nc2c1)c1ccc(Cl)c(Cl)c1
4. CN(C)C(=S)N=C(Nc1ccccc1)Nc1ccccc1

A:
["> 100 µM (inactive)", "15.7 µM (inactive)", "60 µM (inactive)", "> 100 µM (inactive)"]

---

Tested on: MDA-N
assay method text: NCI tumour cell line growth inhibition, 48 h
The source made the active and inactive calls. Cut-off read from the data, not from the text of the source: active = GI50 up to about 1.1 µM and inactive = higher.
For each record, write down the corresponding GI50.

// below: answered compounds
[
  {
    "mol": "Cc1c2c(n(CCN(C)C)c1C)NN=C(C#N)S2(=O)=O",
    "result value": "> 100000 nM (inactive)"
  },
  {
    "mol": "O=[N+]([O-])/C=C/c1cn(CCCCCCCCn2cc(/C=C/[N+](=O)[O-])c3ccccc32)c2ccccc12",
    "result value": "610 nM (active)"
  }
]

Q: Entry O=c1cc(-c2ccccc2)[nH]c2cccc(S)c12 has what GI50?
A: 24.6 nM (active)

---

System: A498
assay method text: NCI tumour cell line growth inhibition, 48 h
Calls of active or inactive are those of the source. Cut-off read from the data, not from the text of the source: active = GI50 up to about 1.1 µM and inactive = higher.
One label from this list, please: yes = active, no = inactive

Below are worked cases with known answers.
[
  {
    "compound": "Cc1ccc(-c2nnc3s/c(=C\\c4ccc(N(C)C)cc4)c(=O)n23)cc1",
    "cat": "no"
  },
  {
    "compound": "O=C(O)C1CC2C3CCC2C1C3=O (configuration not stated)",
    "cat": "no"
  },
  {
    "compound": "CNNC(=NS(=O)(=O)c1cc(C#N)c(NNC)cc1S)NNC",
    "cat": "no"
  },
  {
    "compound": "O=C1OC[C@@H]2Cc3c([nH]c4ccccc34)[C@@H](c3ccc(O)cc3)N12",
    "cat": "no"
  },
  {
    "compound": "COC(=O)[C@]12CC[C@H]3CN(C(=O)OCc4ccccc4)[C@H]([C@H]31)[C@H](c1ccco1)N2",
    "cat": "yes"
  }
]

Q: Each compound tested received a call. Report the one for CCOC(=O)c1c2ccc(/C=C/c3ccccn3)ccc-2c(C(=O)OCC)c1N .
A: no

Q: Which outcome was assigned to CC1=C2C(=C[C@@](C)(CO)[C@@H]2O)C(=O)[C@](C)(O)C12CC2 in this test?
A: yes

Q: What was the test verdict on COC(=O)c1ncc2c(=O)[nH]c3ccccc3c2c1C(=O)OC ?
A: no

---

System: SW-620
assay method text: NCI tumour cell line growth inhibition, 48 h
Activity calls are given as the source filed them. Rule as the data show it: active = GI50 up to about 1.1 µM and inactive = higher.
Give your call using only these classes: active, inactive

[
  {
    "compound": "O=C(O)c1ccccc1C1c2ccc(Cl)cc2Oc2cc(Cl)ccc21",
    "cat": "inactive"
  },
  {
    "compound": "C=CC(=O)N1C/C(=C\\c2ccc([N+](=O)[O-])cc2)C(=O)/C(=C/c2ccc([N+](=O)[O-])cc2)C1",
    "cat": "active"
  },
  {
    "compound": "Cc1ccc(-n2cnc3c(N)nc(N)nc32)cc1",
    "cat": "inactive"
  }
]

Now for another entry.
Q: Which result was noted for this compound in the test: CC(=O)OC1COC(n2c(N)c(C#N)c(C)c(C#N)c2=S)C(OC(C)=O)C1OC(C)=O (centres undefined)
A: inactive

---

Test system: HL-60
assay method text: NCI tumour cell line growth inhibition, 48 h
Active and inactive are the calls of the source. Cut-off read from the data, not from the text of the source: active = GI50 up to about 1.1 µM and inactive = higher.
Log the outcome using a class from active, inactive

Past entries and their recorded results:
[
  {
    "compound": "O=C(NC1C(=O)NNC1c1cccc([N+](=O)[O-])c1)c1ccccc1 (configuration not stated)",
    "cat": "inactive"
  },
  {
    "compound": "Cc1n[nH]c(C(F)(F)F)c1/N=N/N(C)C",
    "cat": "inactive"
  },
  {
    "compound": "COc1cc(C2C(C#N)=C(N)OC3=C2CCS(=O)(=O)c2ccc(C)cc23)cc(OC)c1OC (configuration not stated)",
    "cat": "inactive"
  }
]

Q: Field: outcome | Entry: COc1cc(C2c3cc4c(cc3C(NCC(O)CO)C3COC(=O)[C@H]23)OCO4)cc(OC)c1OC (some centres not stated)
A: active

Q: Which outcome was entered for the compound N=C(c1ccc2ccccc2c1)c1ccccc1Cc1ccccc1 in this test?
A: inactive

Q: Just curious, what result did CCN(CC)CCO/N=C1\CC[C@H]2[C@@H]3CC=C4C[C@@H](O)CC[C@]4(C)[C@H]3CC[C@]12C get here?
A: inactive

Q: Dear all, I need the recorded test outcome for CCCC(=O)O[C@H]1C=C2C[C@@]34SS[C@]5(CC6=C[C@H](OC(C)=O)[C@@H]7O[C@@H]7[C@H]6N5C3=O)C(=O)N4[C@@H]2[C@H]2O[C@H]21 , thank you.
A: active

Q: // outcome(item) with item = CN(C(=O)C1=CCCCCC1)c1ccccc1I
A: inactive

Q: Answer briefly: the call reported for O=C(NCCOC(=O)CCCCCCCCC(=O)OCCNC(=O)NC(=O)c1cn(Cc2ccccc2)c(=O)[nH]c1=O)NC(=O)c1cn(Cc2ccccc2)c(=O)[nH]c1=O in this assay.
A: inactive

---

Test system: NCI-H226
assay method text: NCI tumour cell line growth inhibition, 48 h
Activity calls are given as the source filed them. Cut-off read from the data, not from the text of the source: active = GI50 up to about 1.1 µM and inactive = higher.
Exercise: for every item that follows, state its recorded GI50.

[
  {
    "compound": "O=C(NCCOC(=O)CCCCCCCCC(=O)OCCNC(=O)NC(=O)c1cn(Cc2ccccc2)c(=O)[nH]c1=O)NC(=O)c1cn(Cc2ccccc2)c(=O)[nH]c1=O",
    "GI50": "> 100 µM (inactive)"
  }
]

Batch request: GI50 for each of the following compounds.
1. Cc1cc(C)c(C(=O)/C=C/c2ccccc2)c(C)c1
2. COc1c(-c2nc3ccc(N4CCN(C)CC4)nc3[nH]2)cc(OC)c2c1nc(CCl)n2C
3. CC1(C)OC(=O)[C@@](C)([C@H](O)c2ccccc2)O1
4. Oc1ccccc1C1C=C(c2ccccc2)NC(N2CCCCC2)=C1c1nc2ccccc2[nH]1 (configuration not stated)
5. C=C1CC(C#N)(C#N)[C@@H]2CC3CCCC3[C@H]12.C=C1CC(C#N)(C#N)[C@H]2C3CCCC3C[C@@H]12 (some centres not stated)

A:
["22.8 µM (inactive)", "19.9 µM (inactive)", "27.6 µM (inactive)", "16.7 µM (inactive)", "25.3 µM (inactive)"]

---

Assign GI50 to each entry below.
Test system: BT-549
assay method text: NCI tumour cell line growth inhibition, 48 h
Calls of active or inactive are those of the source. Cut-off read from the data, not from the text of the source: active = GI50 up to about 1.1 µM and inactive = higher.

Examples with answers:
[
  {
    "molecule": "Cc1ccc([N+](=O)[O-])cc1S(=O)(=O)Nc1ccc(C2=NN(c3ccc([N+](=O)[O-])cc3[N+](=O)[O-])C(c3ccccc3)C2)cc1 (stereo not drawn)",
    "experimental target": "BT-549",
    "GI50": "17.2 µM (inactive)"
  },
  {
    "molecule": "CC(C)(/N=N/C(C)(C)C(=O)NCCO)C(=O)NCCO",
    "experimental target": "BT-549",
    "GI50": "> 100 µM (inactive)"
  }
]

Now for the molecule whose GI50 we want.
Q: So what does the record say about GI50 for O=C(CSCC(=O)N/N=C/c1ccccc1)N/N=C\c1ccccc1 ?
A: 2.2 µM (inactive)
